Reference source for all entries: PubChem BioAssay AID1919015

system: OVCAR-5 complex spheroids with HUVEC/MSC, viability, % test/control; assay: Anticancer human tumor OVCAR-5 cell line growth inhibition [AhR]; settings: second compound 0.316 µM; first compound 0.01 µM; active compounds read low;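 also: spheroids exposed to compounds for 7 days; 100% = DMSO vehicle control wells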
METRIC_NAME: viability, T/C (%)
Give just the numeric value; % need not be written.

[Q] Notebook entry, OVCAR-5 complex spheroids with HUVEC/MSC, viability, % test/control assay: viability, T/C of Nc1ncn(C2CC(O)C(CO)O2)c(=O)n1 (configuration not stated) + CC(CO)NC(=O)c1cc(-c2ccc(Cl)cc2)nn(-c2cnn(C)c2)c1=O = ?
[A] 107

[Q] Another molecule to look at: CC1COCCN1c1cc(-c2ccnn2C)c2ccnc(-c3ccn[nH]3)c2n1 (configuration not stated) + Cc1ccccc1N=Nc1ccc(NC(=O)c2ccnn2C)c(C)c1
[A] 105

[Q] Another molecule to look at: Cn1ncnc1C1c2n[nH]c(=O)c3cc(F)cc(c23)NC1c1ccc(F)cc1 (configuration not stated) + CC(CO)NC(=O)c1cc(-c2ccc(Cl)cc2)nn(-c2cnn(C)c2)c1=O
[A] 107

[Q] Another molecule to look at: CC[C@@]1(O)C(=O)OCc2c1cc1n(c2=O)Cc2cc3c(CN(C)C)c(O)ccc3nc2-1 + Cc1cncc(-c2nc(NCCc3c[nH]c4ccccc34)c3ncn(C(C)C)c3n2)c1
[A] 82.2

[Q] Another molecule to look at: CC[C@@]1(O)C(=O)OCc2c1cc1n(c2=O)Cc2cc3c(CN(C)C)c(O)ccc3nc2-1 + Cc1ccccc1N=Nc1ccc(NC(=O)c2ccnn2C)c(C)c1
[A] 84.6

[Q] Another molecule to look at: CC[C@@]1(O)C(=O)OCc2c1cc1n(c2=O)Cc2cc3c(CN(C)C)c(O)ccc3nc2-1 + CC(CO)NC(=O)c1cc(-c2ccc(Cl)cc2)nn(-c2cnn(C)c2)c1=O
[A] 99.5

[Q] Another molecule to look at: CC1COCCN1c1cc(-c2ccnn2C)c2ccnc(-c3ccn[nH]3)c2n1 (configuration not stated) + Cc1cncc(-c2nc(NCCc3c[nH]c4ccccc34)c3ncn(C(C)C)c3n2)c1
[A] 104

[Q] Another molecule to look at: Nc1ncn(C2CC(O)C(CO)O2)c(=O)n1 (configuration not stated) + Cc1cncc(-c2nc(NCCc3c[nH]c4ccccc34)c3ncn(C(C)C)c3n2)c1
[A] 91.7

[Q] Another molecule to look at: Cn1ncnc1C1c2n[nH]c(=O)c3cc(F)cc(c23)NC1c1ccc(F)cc1 (configuration not stated) + Cc1ccccc1N=Nc1ccc(NC(=O)c2ccnn2C)c(C)c1
[A] 102

[Q] Another molecule to look at: Cn1ncnc1C1c2n[nH]c(=O)c3cc(F)cc(c23)NC1c1ccc(F)cc1 (configuration not stated) + Cc1cncc(-c2nc(NCCc3c[nH]c4ccccc34)c3ncn(C(C)C)c3n2)c1
[A] 99.2

[Q] Another molecule to look at: Nc1ncn(C2CC(O)C(CO)O2)c(=O)n1 (configuration not stated) + Cc1ccccc1N=Nc1ccc(NC(=O)c2ccnn2C)c(C)c1
[A] 104

[Q] Another molecule to look at: CC1COCCN1c1cc(-c2ccnn2C)c2ccnc(-c3ccn[nH]3)c2n1 (configuration not stated) + CC(CO)NC(=O)c1cc(-c2ccc(Cl)cc2)nn(-c2cnn(C)c2)c1=O
[A] 113
